test system: U-251; test: NCI tumour cell line growth inhibition, 48 h
Activity calls are given as the source filed them. Cut-off read from the data, not from the text of the source: active = GI50 up to about 1.1 µM and inactive = higher.
The reply should name one outcome from true = active, false = inactive

See these solved cases before continuing.
* O=C1C=C2CCC[C@H]3OC(=O)C[C@@]23CC1 | false
* Cc1nc2ccc(NC3OCC(O)C(O)C3O)cc2c(=O)n1-c1ccccc1 (stereo not drawn) | false
* COc1cc(/C=C/C(=O)O)ccc1C(=O)O/C=C/c1ccccc1 | false
* CC(=O)OC12OC(C)(C3C(=O)N(c4ccccc4)C(=O)C31)N(c1ccccc1)C2=O (stereo not drawn) | false
* CC(Cl)CN1c2ccccc2Sc2ccc(Cl)cc21 (stereo not drawn) | false
* Cc1nc(O)nc(N(CCO)/N=C/c2ccc(Cl)cc2)c1C(=O)Nc1ccc(Cl)cc1 | false
* COc1cc2c(cc1O)[C@@H]1Cc3c(cc(OC)c(OC)c3Oc3cc4c(cc3OC)CCN(C)[C@@H]4Cc3ccc(O)cc3)[C@H](C2)N1C | false
* CC1(C)CCCCCC(C)(CCCO)C1=O (stereo not drawn) | false
* CCN(CC)CCC1(C2CCCCC2)CCC(=O)NC1=O (stereo not drawn) | false
* CCOC(=O)N1CCN(c2c(C)nc(C)nc2O)CC1 | false

Just curious, what result did COc1ccc(N2C(=O)C3c4[nH]c5ccccc5c4C4CC(C)CC(C)C4C3C2=O)cc1 (stereo not drawn) get here?
false

Just curious, what result did C=CCNC1=C2C[C@@H](C)C[C@@H](OC)C(OC(=O)CCCN(C)C)[C@H](C)/C=C(\C)[C@@H](OC(N)=O)[C@H](OC)/C=C\C=C(/C)C(=O)NC(=CC1=O)C2=O (stereo partly drawn) get here?
false

Just curious, what result did `c1ccc(C(C2=Nc3cccc4cccc(c34)N2)c2ccccc2)cc1` get here?
false

---

Below is a list of entries, each paired with its recorded GI50 value.
tested on: HOP-62; experiment: NCI tumour cell line growth inhibition, 48 h
The source made the active and inactive calls. No stated cut-off is given here; in the data, active = GI50 up to about 1.1 µM and inactive = higher.

Recorded results for 5 molecules are shown here.
- O=C(O)c1ccc2[nH]c(=O)oc2c1: > 100 µM (inactive)
- Cc1ccc2nc3c(C)c(Cl)c(=O)cc-3sc2c1: 27.5 µM (inactive)
- COC1=CC(=O)C(O)=C(C[C@@]2(C)[C@@H]3CCC[C@H](COC(=O)CCCCCNC(=O)OC(C)(C)C)[C@@]3(C)CC[C@@H]2C)C1=O: 5.08 µM (inactive)
- CC(C)C(=O)CC(c1ccc(Br)cc1)N1N=C(C(C)C)CC1c1ccc(Br)cc1 (stereo unspecified): > 100 µM (inactive)
- CS(=O)(=O)NNS(=O)(=O)c1ccc(F)cc1: > 100 µM (inactive)

Now consider the entry below.
Look up GI50 for this molecule: `CCSc1nc2n(c(=S)n1)CCN2C`
28.6 µM (inactive)

---

test system: MDA-MB-435; assay: NCI tumour cell line growth inhibition, 48 h
Active and inactive are the calls of the source. No stated cut-off is given here; in the data, active = GI50 up to about 1.1 µM and inactive = higher.
The reply should name one outcome from Y (active), N (inactive)

See these solved cases before continuing.
- COc1ccc(C2SCC(=O)N2NC(=O)C(C)Oc2ccccc2Cl)cc1 (stereo unspecified): N
- Cc1nc(N)c(N2CCN(Cc3ccccc3)CC2)c(O)n1: N
- O=C(c1cccs1)N(Cc1cccnc1)C(=S)N(Cc1cccnc1)C(=O)c1cccs1: N
- C=CCC(CNC(=O)OCc1ccccc1)O[Si](C)(C)C(C)(C)C (stereo unspecified): N

Just curious, what result did O=C1c2ccccc2NC2C(O)c3ccccc3N12 (stereo unspecified) get here?
N

Just curious, what result did `Nc1nc(O)c([I+]c2ccccc2)c(=O)[nH]1` get here?
N

Just curious, what result did `C[N+]1(C)CC=C(N2CCOCC2)CC1` get here?
N

---

test system: COLO 205; experiment: NCI tumour cell line growth inhibition, 48 h
Active and inactive are the calls of the source. Rule as the data show it: active = GI50 up to about 1.1 µM and inactive = higher.
Below is a list of entries, each paired with its recorded GI50 value.

Recorded results for 6 compounds are shown here.
• CSc1nc(Cl)c2c(n1)Sc1nc3cc4c(cc3n1C2O)OCCO4 (centres undefined) = 0.0509 µM (active)
• CS(=O)(=O)NNS(=O)(=O)c1ccc(F)cc1 = > 100 µM (inactive)
• COc1cc2cnc3c4cc(O)ccc4ccc3c2cc1OC = 12.9 µM (inactive)
• Cn1cnc(N2CCCC2)c(C#N)c1=O = > 100 µM (inactive)
• COC(=O)C1=NN2c3ccccc3CN([C@@H](C)c3ccccc3)C(=O)[C@@H]2C1 = 35.6 µM (inactive)
• C[C@]12CCC(=O)C=C1CC[C@@H]1C2CC[C@]2(C)Nc3c(ncn3-c3ccc(F)cc3)CC12 (some centres undefined) = 15.7 µM (inactive)

COLO 205 / GI50 / `Cc1cc(N(CCC#N)CCC#N)ccc1/N=N/c1cccc(Cl)c1` : value?
> 100 µM (inactive)

COLO 205 / GI50 / COc1ccc(C2SCC(=O)N2NC(=O)C(C)Oc2ccccc2Cl)cc1 (centres undefined) : value?
26.5 µM (inactive)

COLO 205 / GI50 / `CCOC(=O)N1CCN(C(=O)Nc2cccc3ccccc23)CC1` : value?
> 10 µM (inactive)

COLO 205 / GI50 / C=C1C(OC2O[C@@H]3O[C@@]4(C)CC[C@H]5[C@H](C)CC[C@@H](C2=C)[C@@]35O4)O[C@@H]2O[C@@]3(C)CC[C@H]4[C@H](C)CC[C@@H]1[C@@]24O3 (some centres undefined) : value?
> 50 µM (inactive)

COLO 205 / GI50 / `CC(C)=CCC[C@@H](C)C1=C(Nc2ccccc2Cl)C(=O)C(C)=C(O)C1=O` : value?
2.84 µM (inactive)

---

test system: 786-0; assay: NCI tumour cell line growth inhibition, 48 h
Active and inactive are the calls of the source. No stated cut-off is given here; in the data, active = GI50 up to about 1.1 µM and inactive = higher.
The reply should name one outcome from active, inactive

• CN1C(=O)c2c(c3c4ccccc4n(C)c3c3c2c2ccccc2n3C)C1=O = inactive
• COc1ccccc1N1C(=O)C2c3[nH]c4ccccc4c3C3CCC(C(C)(C)C)CC3C2C1=O (configuration not stated) = inactive
• C[N+]1(C)CCCC(C#N)(c2ccccc2)CC1 (configuration not stated) = inactive
• Nc1nc(Cl)cc(Nc2cc(Cl)cc(Cl)c2)n1 = inactive
• CCOC(=O)N1CCN(c2c(C)nc(C)nc2O)CC1 = inactive

Just curious, what result did COc1cc(C2c3cc4c(cc3OC(NN=C(C)C)C2C)OCO4)cc(OC)c1O (configuration not stated) get here?
inactive

Just curious, what result did `COc1cccc(C(=O)O[C@H]2[C@@H]3[C@]4(OC(C)=O)CO[C@@H]4C[C@H](O)[C@@]3(C)C(=O)[C@H](OC(C)=O)C3=C(C)[C@@H](OC(=O)[C@H](O)[C@@H](NC(=O)OC(C)(C)C)c4ccco4)C[C@]2(O)C3(C)C)c1` get here?
active

---

system: ACHN; experiment: NCI tumour cell line growth inhibition, 48 h
Calls of active or inactive are those of the source. Rule as the data show it: active = GI50 up to about 1.1 µM and inactive = higher.
The reply should name one outcome from True = active, False = inactive

* CCC(=O)Nc1ncnc2ncn(C(=O)CC)c12 | False
* C=C1C(=O)O[C@@H]2C=C(C)C3=CC(=O)[C@](C)(C[C@H](OC(=O)/C(C)=C\C)[C@@H]12)O3 | True
* Nc1ccn(C2OC(C(OC3OC(CO)C(O)C(N)C3O)C(O)C(O)C(O)C(O)CO)C(N)C(O)C2O)c(=O)n1 (centres undefined) | False

Just curious, what result did `Oc1c(C2=N[C@H]3CCCC[C@@H]3N2)ccc2ccccc12` get here?
False

Just curious, what result did `CCOC(=O)c1sc2nc(SC)nc(Nc3ccc4c(c3)OCO4)c2c1N` get here?
False

Just curious, what result did `N#Cc1c(NC(=S)Nc2ccc(Cl)cc2)sc2c1CCCC2` get here?
False

Just curious, what result did CC(C)=CCC/C(C)=C/CC/C(C)=C/CC/C=C(\C)CC/C=C(\C)CCC1SC1(C)C (centres undefined) get here?
False

Just curious, what result did `CC1(C)OC(=O)C(Cc2ccccc2)(Cc2ccccc2)C(=O)O1` get here?
False

Just curious, what result did O=C1CCCCC1C(O)(C(F)(F)F)C(F)(F)Cl (centres undefined) get here?
False

Just curious, what result did `Cn1c(=O)c2nc[nH]c2n(C)c1=O` get here?
False

Just curious, what result did `Clc1ccc(Nc2nnc(CCCCCCCCc3nnc(Nc4ccc(Cl)cc4)o3)o2)cc1` get here?
False

Just curious, what result did CC(=O)OC1CCn2c1nc1cc([N+](=O)[O-])c(C)cc12 (centres undefined) get here?
False

Just curious, what result did `CCNC(=O)c1cc(/C=C/c2ccc([N+](=O)[O-])o2)nc2ccccc12` get here?
False

Just curious, what result did `CC[C@](O)(CC(=O)O[C@H]1C(=O)O[C@@H]2C[C@H]3C(C)=CC(=O)[C@@H](O)[C@]3(C)[C@H]3[C@@]4(O)OC[C@]32[C@@H]1[C@@H](C)[C@H]4O)C(C)C` get here?
True
